# tested_target: Solute carrier organic anion transporter family member 1B3 (Homo sapiens)
# Sequence (Q9NPD5 whole entry): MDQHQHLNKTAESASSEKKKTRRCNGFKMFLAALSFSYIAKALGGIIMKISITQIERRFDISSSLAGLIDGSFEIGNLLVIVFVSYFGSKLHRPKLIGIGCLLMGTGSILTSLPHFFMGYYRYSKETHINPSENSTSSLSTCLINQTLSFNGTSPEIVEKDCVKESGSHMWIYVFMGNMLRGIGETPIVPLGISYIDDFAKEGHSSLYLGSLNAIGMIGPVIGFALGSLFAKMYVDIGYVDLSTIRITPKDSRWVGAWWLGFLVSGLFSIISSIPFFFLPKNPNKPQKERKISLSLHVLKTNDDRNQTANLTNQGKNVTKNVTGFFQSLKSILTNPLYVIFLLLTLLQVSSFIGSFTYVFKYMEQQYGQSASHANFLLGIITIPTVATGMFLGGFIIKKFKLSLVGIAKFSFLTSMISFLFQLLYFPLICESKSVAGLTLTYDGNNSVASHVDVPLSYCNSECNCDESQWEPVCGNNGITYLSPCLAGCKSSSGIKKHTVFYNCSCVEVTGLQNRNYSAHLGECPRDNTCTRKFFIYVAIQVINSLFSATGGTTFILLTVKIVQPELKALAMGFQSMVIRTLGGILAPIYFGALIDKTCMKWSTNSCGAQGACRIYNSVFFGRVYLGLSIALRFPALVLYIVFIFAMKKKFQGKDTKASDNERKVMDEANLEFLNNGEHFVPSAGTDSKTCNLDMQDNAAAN
# condition_label: chinese hamster, cho, 10 µM
assay_readout: residual activity

{"molecule": "COC(=O)c1cc(O)c(=O)c2c(O)c(O)ccc2c1", "residual activity": "80.24%"}

Qu. Would you mind telling me what residual activity value was observed for COC(=O)C[C@H]1C(C)(C)C2(O)OC34CC2C(=O)[C@]1(C)C3CC[C@]1(C)C4=CC(=O)O[C@H]1c1ccoc1 (stereo partly drawn) [8beta-HYDROXYCARAPIN, 3,8-HEMIACETAL] ?
Ans. 49.62%

Qu. Try this molecule too: COc1ccccc1/C=C/C(=O)O [COUMARINIC ACID METHYL ETHER]
Ans. 119.3%

Qu. Note, next up: CCCCOc1ccc(C(=O)CCN2CCCCC2)cc1.Cl [DYCLONINE HYDROCHLORIDE]
Ans. 83.62%
